Exercise: for every item that follows, state its recorded log10 IC50.
experimental system: full-length recombinant human FYN A (Homo sapiens (Human), UniProt P06241)
Sequence (P06241 whole entry): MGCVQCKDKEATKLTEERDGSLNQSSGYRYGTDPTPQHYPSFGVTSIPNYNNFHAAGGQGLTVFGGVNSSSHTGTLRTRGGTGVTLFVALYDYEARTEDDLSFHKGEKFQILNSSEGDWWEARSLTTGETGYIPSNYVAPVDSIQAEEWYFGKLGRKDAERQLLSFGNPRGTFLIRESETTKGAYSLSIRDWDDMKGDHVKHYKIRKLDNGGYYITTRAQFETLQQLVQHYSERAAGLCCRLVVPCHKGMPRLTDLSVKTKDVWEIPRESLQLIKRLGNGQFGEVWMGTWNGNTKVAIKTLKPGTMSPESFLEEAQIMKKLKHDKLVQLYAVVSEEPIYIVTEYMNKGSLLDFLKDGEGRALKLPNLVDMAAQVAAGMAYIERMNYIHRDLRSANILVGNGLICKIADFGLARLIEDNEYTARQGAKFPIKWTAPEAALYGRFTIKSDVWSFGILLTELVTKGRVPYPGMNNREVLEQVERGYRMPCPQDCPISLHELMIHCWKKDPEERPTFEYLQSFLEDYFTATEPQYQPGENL
experiment notes: ADP-Glo Kinase Assay of FYN kinase inhibition
Assay type: biochemical
condition set: primary screen, initial compounds
All values: log10 IC50 [µM].

Would you mind telling me what log10 IC50 value was observed for c1csc(CNc2nn3c(-c4ccncc4)cnc3s2)c1 ?
0.56

Do the same for COc1ccc(-c2cnn3ccc(Nc4ccc(C(C)C)cc4)nc23)cc1 please
0.62

What about this molecule? COc1ccccc1-c1n[nH]c2nccc(-c3cccc(CO)c3)c12
0.22

COc1cc(-c2ccc3ncc(-c4cccc(NC(C)=O)c4)n3n2)cc(OC)c1OC ?
0.50

Lookup OCc1ccc(-c2cn3c(-c4cccc(O)c4)cnc3cn2)cc1
0.53

Next molecule: Nc1cccc(-c2cnc3ccc(NCc4cccs4)nn23)c1
0.25

Similarly, CC(=O)Nc1cccc(-c2cnc(N)c(-c3ccc(O)cc3)c2)c1 ?
-0.08

Consider next the molecule COc1ccccc1-c1n[nH]c2nccc(-c3ccc(C#N)cc3)c12 in the same way.
0.20

Entry to check: OCc1ccc(-c2cnc3ccc(NCc4ccc(F)cc4)nn23)cc1
0.39

Then this molecule: COc1ccccc1C(=O)N1Cc2cnc(Nc3cccc(N(C)C)c3)nc2C1
1.00

Try CN(C)c1cccc(-c2cc(-c3cccc(C(N)=O)c3)cnc2N)c1 next.
0.55

Moving on to the next molecule: COc1cc(-c2cc(-c3cccc(Cl)c3)cnc2N)ccc1O
0.55

Entry to check: CN(C)CCNC(=O)c1ccc(-c2cn3c(-c4ccc(Oc5ccccc5)cc4)cnc3cn2)cc1
-0.78

Queued: COc1cc(-c2cnc3ccc(-c4ccc(CO)cc4)nn23)ccc1O
-0.90

For CN(C)CCNC(=O)c1cccc(-c2cnc3ccc(-c4ccc(CO)cc4)nn23)c1 then?
0.17

Also CCOc1cccc(-c2cn3c(-c4cccc(O)c4)cnc3cn2)c1 , if possible.
0.83

Check CN1CCN(c2ccc(Nc3cc4c(cn3)cc(-c3cccc(F)c3)n4C)cc2)CC1 too.
1.11

Cool, now CS(=O)(=O)Nc1cccc(-c2ccc3ncc(-c4ccc(CO)cc4)n3n2)c1
-0.08

Next record, please: CC(=O)c1cccc(-c2cnc3ccc(Cc4ccccc4)nn23)c1
0.60

And CCNC(=O)N1CCc2nc(Nc3cc(OC)c(OC)c(OC)c3)ncc2C1 ?
0.63

CN(C)CCCNC(=O)c1ccc(-c2cn3c(-c4ccc5c(c4)OCO5)cnc3cn2)cc1 , same question.
0.78

Can you check COc1cc(-c2ccc3ncc(-c4cccc(NC(C)=O)c4)n3n2)ccc1O next?
-1.03

Another: C[C@@H](c1ccccc1)n1c(=O)[nH]c2ncc(-c3cccc(C(=O)N(C)C)c3)nc21
0.25

Same read-out for OCc1cccc(-c2ccc3ncc(-c4cccc(Cl)c4)n3n2)c1 ?
0.99

Moving on to the next molecule: OCc1ccc(-c2ccnc3[nH]nc(-c4cccc(F)c4)c23)cc1
0.59

Please do the same for COc1cc(-c2ccc3ncc(-c4cccc(CO)c4)n3n2)ccc1O as well.
-0.82

Moving on to the next molecule: COCOc1ccc(-c2cc(-c3cccc(C(N)=O)c3)cnc2N)cc1
0.48

Another: Fc1ccc(-c2ccc3ncc(-c4cccnc4)n3n2)cc1
0.44

And for O=C(O)c1ccc(-c2cnc3ccc(NCc4ccc(Cl)c(Cl)c4)nn23)cc1 ?
0.00

Note, next up: CN1CCN(c2ccc(-c3cn4c(-c5ccccc5)cnc4cn3)cn2)CC1
1.04

# iterate: COc1ccccc1-c1ccc2ncc(-c3cccnc3)n2n1
0.37

Then COc1cc(-c2cnc3ccc(NCCCO)nn23)ccc1O ?
-0.48

Next up: COc1ccc(-c2cnc3sc(NCCc4ccc(S(N)(=O)=O)cc4)nn23)cc1OC
0.71
